Tested on: human monocytes (THP-1 cell line)
Assay: multiplex functional cell-based HTS assay (5-plex): expression of co-stimulatory molecules and cytokines by THP-1 monocytes
Conditions: THP-1 cells incubated overnight with 10^-5M test compound; concentration in cell culture supernatant, Luminex, mean of two wells
Experimental: Test compounds/candidate agents were diluted in 100% DMSO at a concentration of 10^−2M and stored in 96 well “matrix” plates at −80° C. These compound stocks were employed as a pool of mother plates. […] Expression of cell surface receptors was analyzed by flow cytometry using the following antibodies: PE-conjugated anti-human CD80 and APC conjugated anti-human CD54 (ICAM-1) and matching labeled isotype controls, all from BD Pharmingen. […]
Kindly supply the reported TNFα values for the records listed here.
One number for each entry.

Some solved cases for reference:
{"molecule": "COc1cc2c(c(OC)c1OC)-c1ccc(OC)c(=O)cc1[C@@H](NC(C)=O)CC2 [Colchicine]", "measurement.target": "human monocytes (THP-1 cell line)", "TNFα": 66.37}
{"molecule": "CC[C@]1(O)C[C@H]2CN(CCc3c([nH]c4ccccc34)[C@@](C(=O)OC)(c3cc4c(cc3OC)N(C=O)[C@H]3[C@@](O)(C(=O)OC)[C@H](OC(C)=O)[C@]5(CC)C=CCN6CC[C@]43[C@@H]65)C2)C1 [Vincristine]", "measurement.target": "human monocytes (THP-1 cell line)", "TNFα": 88.30}
{"molecule": "CC[C@]1(O)C[C@@H]2CN(CCc3c([nH]c4ccccc34)[C@@](C(=O)OC)(c3cc4c(cc3OC)N(C)[C@H]3[C@@](O)(C(=O)OC)[C@H](OC(C)=O)[C@]5(CC)C=CCN6CC[C@]43[C@@H]65)C2)C1 [Vinblastine]", "measurement.target": "human monocytes (THP-1 cell line)", "TNFα": 78.47}

Continue with the next molecule.
Given item CN[C@H]1CCc2cc(OC)c(OC)c(OC)c2-c2ccc(OC)c(=O)cc21 [Demecolcine] , the value recorded as its TNFα is 95.20
